All figures here come from patent US12150995B2.

- Target Under Test: IRAK4 (Homo sapiens)
- Construct: endogenous in cells; host or cells: OCI-LY10
- Sequence (Q9NWZ3 whole entry): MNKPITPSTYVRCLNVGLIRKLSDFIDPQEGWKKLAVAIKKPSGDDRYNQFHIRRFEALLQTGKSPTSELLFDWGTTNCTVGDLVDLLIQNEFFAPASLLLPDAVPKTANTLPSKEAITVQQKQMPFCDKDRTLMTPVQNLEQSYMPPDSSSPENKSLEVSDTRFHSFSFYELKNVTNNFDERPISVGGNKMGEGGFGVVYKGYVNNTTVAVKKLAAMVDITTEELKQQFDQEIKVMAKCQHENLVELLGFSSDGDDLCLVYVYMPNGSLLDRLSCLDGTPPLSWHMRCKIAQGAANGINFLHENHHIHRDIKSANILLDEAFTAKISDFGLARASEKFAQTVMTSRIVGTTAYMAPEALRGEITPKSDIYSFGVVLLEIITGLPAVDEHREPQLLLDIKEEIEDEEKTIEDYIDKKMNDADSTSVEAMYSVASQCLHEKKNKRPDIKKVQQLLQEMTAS
- Measurement Description: IRAK4 MSD Degradation in OCI-LY10
- Format: cell-based
- Measurement Conditions: OCI-LY10 cells, Meso Scale Discovery, incubated 4 to 24 hours
- Description: Degradation of IRAK4 in OCI-LY10 was quantitatively measured using Meso Scale Discovery technology. OCI-LY10 cells were seeded in 96-well plates (Corning 3799) with a density of 300,000 cells per well in 100 μL fresh media. […] The assay plates were then incubated at room temperature for 1 hour, washed 3 times with 150 μL/well TBST buffer, and 150 μL/well MSD reading buffer (Meso Scale Discovery catalog number R92TC-2) was added. […]
For each of the compounds below, state its DC50.

Lookup: Which DC50 is reported for this compound? COc1cc2nn([C@H]3CC[C@H](CN4CCN(c5cccc6c5n(C)c(=O)n6C5CCC(=O)NC5=O)CC4)CC3)cc2cc1NC(=O)c1cncc(C)c1 (stereo partly drawn)
Found: < 10 nM

Lookup: Same thing, different compound: Cn1c(=O)n(C2CCC(=O)NC2=O)c2cccc(C3CCN(C[C@H]4CC[C@H](n5cc6cc(NC(=O)c7cccc(C(F)(F)F)n7)cc(F)c6n5)CC4)CC3)c21 (stereo partly drawn)
Found: < 10 nM

Lookup: Same thing, different compound: COc1cc2nn([C@H]3CC[C@H](CN4CCC(c5ccc(F)c6c5n(C)c(=O)n6C5CCC(=O)NC5=O)CC4)CC3)cc2cc1NC(=O)c1cccc(C(F)(F)F)n1 (stereo partly drawn)
Found: < 10 nM
